- Test system: murine dermal fibroblasts
- assayInfo: RNA-Seq of newborn murine dermal fibroblasts
- Format: cell-based, mouse
- conditionContext: 10^−7 M, 24 h
Attribute: Unc5c expression level
// print number alone

# compound, measuredValue
measured = [
    ("C=C1/C(=C\\C=C2/CCC[C@]3(C)[C@@H]([C@H](C)CCCC(C)(C)O)CC[C@@H]23)C[C@@H](O)C[C@@H]1O [1,25(OH)2D3, reference compound]", 0.3264),
    ("CC(C)CCC[C@](C)(O)[C@H]1CC[C@H]2[C@@H]3CC=C4C[C@@H](O)CC[C@]4(C)[C@H]3CC[C@@]21C [20(OH)C, 20-hydroxycholesterol, reference compound]", 0.4963),
    ("C=C1CCC(O)CC1=CC=C1CCCC2(C)C1CCC2C(C)(O)CC(O)CC(C)C (stereo not shown)", 0.1434),
]

Next item in the queue.
### Prompt Any idea what Unc5c expression level was measured for C=C1C(=CC=C2CCCC3(C)C2CCC3C(C)(O)CC(O)CC(C)C)CC(O)CC1O (stereo not shown) ?
### Response 0.4569
